I'd appreciate it if you could supply drug sensitivity score values for the items below.
- Tested on: Caco-2
- test-protocol: drug sensitivity score (DSS) for viability; higher = more toxic; extreme values may be limits of the assay
- condition-info: 72 h

In: Given CC(NC(C)(C)C)C(=O)c1cccc(Cl)c1 (stereo not drawn) , state its recorded drug sensitivity score.
Out: 0

In: Given O=C(O)COc1nn(Cc2ccccc2)c2ccccc12 , state its recorded drug sensitivity score.
Out: 0

In: Given CC(C)C(=O)Oc1ccc(CO)cc1[C@H](CCN(C(C)C)C(C)C)c1ccccc1 , state its recorded drug sensitivity score.
Out: 0

In: Given CNC(=O)c1c(C)oc2cc(Oc3ncnc4cc(OC)c(OC)cc34)ccc12 , state its recorded drug sensitivity score.
Out: 0

In: Given CC(C)(O)C(=O)N1CCN(c2ccc(C(F)(F)F)c(C3=C(c4c[nH]c5ccccc45)C(=O)NC3=O)c2)CC1 , state its recorded drug sensitivity score.
Out: 2.2

In: Given CCO[C@@H](Cc1ccc(OCCc2ccc(OS(C)(=O)=O)cc2)cc1)C(=O)O , state its recorded drug sensitivity score.
Out: 0

In: Given O=C(Oc1ccc(Br)cc1)N1CCN2CCC1CC2 , state its recorded drug sensitivity score.
Out: 0

In: Given O=C(Nc1cnn2ccc(N3CCC[C@@H]3c3cc(F)ccc3F)nc12)N1CC[C@H](O)C1 , state its recorded drug sensitivity score.
Out: 0

In: Given Cn1c(=O)c2c(ncn2CC(O)CO)n(C)c1=O (stereo not drawn) , state its recorded drug sensitivity score.
Out: 0

In: Given O=C1C[C@@H](c2ccc(O)cc2)Oc2cc(O)cc(O)c21 , state its recorded drug sensitivity score.
Out: 0

In: Given CSc1cc2c(cc1C(F)(F)F)N(C(=O)Nc1cccnc1)CC2 , state its recorded drug sensitivity score.
Out: 0

In: Given COC[C@H]1OC(=O)c2coc3c2[C@@]1(C)C1=C(C3=O)[C@@H]2CCC(=O)[C@@]2(C)C[C@H]1OC(C)=O , state its recorded drug sensitivity score.
Out: 9.1

In: Given CN1[C@H]2C[C@H](OC(=O)[C@H](CO)c3ccccc3)C[C@@H]1[C@@H](O)C2 , state its recorded drug sensitivity score.
Out: 0

In: Given C=C[C@@](C)(/C=C/c1ccc(O)cc1)CCC=C(C)C , state its recorded drug sensitivity score.
Out: 0

In: Given Cc1nnc(C(C)C)n1C1C[C@H]2CC[C@@H](C1)N2CC[C@H](NC(=O)C1CCC(F)(F)CC1)c1ccccc1 (stereo in doubt) , state its recorded drug sensitivity score.
Out: 0

In: Given COc1cc(C(=S)N2CCOCC2)ccc1O [vanitiolide] , state its recorded drug sensitivity score.
Out: 0

In: Given CC(C)(C)Sc1c(CC(C)(C)C(=O)O)n(Cc2ccc(Cl)cc2)c2ccc(OCc3ccc4ccccc4n3)cc12 , state its recorded drug sensitivity score.
Out: 0

In: Given Oc1cc(CNC(=S)/C=C/c2cc(O)c(O)c(Br)c2)cc(O)c1O , state its recorded drug sensitivity score.
Out: 5.8

###

- Test system: Caco-2
- test-protocol: cell viability relative to DMSO; higher = less toxic
- condition-info: 72 h; 10 nM
I'd appreciate it if you could supply cell viability values for the items below.
// note: answer is a bare numeric in %

In: Given CC(C)(O)C(=O)N1CCN(c2ccc(C(F)(F)F)c(C3=C(c4c[nH]c5ccccc45)C(=O)NC3=O)c2)CC1 , state its recorded cell viability.
Out: 95.5

In: Given COc1ccc(S(=O)(=O)N2CCCN(S(=O)(=O)c3ccc(OC)c(OC)c3)CC2)cc1OC , state its recorded cell viability.
Out: 90.5

In: Given NS(=O)(=O)c1cc2c(cc1Cl)N=CNS2(=O)=O [chlorothiazide] , state its recorded cell viability.
Out: 99.8

In: Given CC[C@H](NC(=O)c1c(C)c(-c2ccccc2)nc2ccccc12)c1ccccc1 , state its recorded cell viability.
Out: 98.4

In: Given Cc1c(C(N)=O)cc([N+](=O)[O-])cc1[N+](=O)[O-] [dinitolmide] , state its recorded cell viability.
Out: 97.6

In: Given CC(=O)CC/C=C(\C)CC/C=C(\C)CC/C=C(\C)CCC=C(C)C [teprenone] , state its recorded cell viability.
Out: 88.2

In: Given CC(=O)N1N=C(c2ccc(N)cc2)c2cc3c(cc2C[C@H]1C)OCO3 [talampanel] , state its recorded cell viability.
Out: 104

In: Given C=C(C)[C@@H]1CC=C(CO)CC1 [perillyl-alcohol] , state its recorded cell viability.
Out: 99.6

In: Given C[C@H]1COC2=C1C(=O)C(=O)c1c2ccc2c1CCCC2(C)C [cryptotanshinone] , state its recorded cell viability.
Out: 93
